// reported half-life for each item listed
Target: chymotrypsin (Homo sapiens, UniProt P17538+P40313+Q6GPI1+Q99895)
Test: Stability of compound assessed as chymotrypsin (unknown origin) mediated compound degradation by measuring half-life by RP-HPLC analysis
Type: ADME, protein assay
Square brackets hold non-standard residues; d marks the D form. Peptide text beside a SMILES is read from it. * marks the point of attachment. ξ: configuration not given here. C22 diacid = O=C(O)CCCCCCCCCCCCCCCCCCCCC(=O)*; C20 diacid = O=C(O)CCCCCCCCCCCCCCCCCCC(=O)*; C18 diacid = O=C(O)CCCCCCCCCCCCCCCCC(=O)*; Stearoyl = CCCCCCCCCCCCCCCCCC(=O)*; Palmitoyl = CCCCCCCCCCCCCCCC(=O)*; Myristoyl = CCCCCCCCCCCCCC(=O)*; ξR = N=C(N)NCCCC(N)C(=O)O
OUTCOME MEASURE: half-life (h)

INSERT INTO assay_data (compound, endpoint_value) VALUES
  ('CCCCCCCCCCCCCCCC(=O)N[C@H](C(=O)N[C@@H](C)C(=O)N[C@@H](CCC(N)=O)C(=O)N[C@@H](CCC(=O)O)C(=O)N[C@@H](CC(C)C)C(=O)N[C@@H](CCCNC(=N)N)C(=O)N[C@@H](CCCNC(=N)N)C(=O)N[C@H](C(=O)NCC(=O)N[C@@H](CC(=O)O)C(=O)N[C@@H](CCC(=O)O)C(=O)N[C@@H](Cc1ccccc1)C(=O)O)[C@@H](C)CC)[C@@H](C)CC (Palmitoyl-IAQELRRIGDEF-OH)', 0.56),
  ('CC[C@H](C)[C@H](NC(=O)CCCCCCCCCCCCCCCCCCC(=O)O)C(=O)N[C@@H](C)C(=O)N[C@@H](CCC(N)=O)C(=O)N[C@@H](CCC(=O)O)C(=O)N[C@@H](CC(C)C)C(=O)N[C@@H](CCCNC(=N)N)C(=O)NC(CCCNC(=N)N)C(=O)N[C@H](C(=O)NCC(=O)N[C@@H](CC(=O)O)C(=O)N[C@@H](CCC(=O)O)C(=O)N[C@@H](Cc1ccccc1)C(=O)O)[C@@H](C)CC (stereo partly specified) ({C20 diacid}-IAQELR[ξR]IGDEF-OH)', 0.5),
  ('CC[C@H](C)[C@H](NC(=O)CCCCCCCCCCCCCCCCCCCCC(=O)O)C(=O)N[C@@H](C)C(=O)N[C@@H](CCC(N)=O)C(=O)N[C@@H](CCC(=O)O)C(=O)N[C@@H](CC(C)C)C(=O)N[C@@H](CCCNC(=N)N)C(=O)NC(CCCNC(=N)N)C(=O)N[C@H](C(=O)NCC(=O)N[C@@H](CC(=O)O)C(=O)N[C@@H](CCC(=O)O)C(=O)N[C@@H](Cc1ccccc1)C(=O)O)[C@@H](C)CC (stereo partly specified) ({C22 diacid}-IAQELR[ξR]IGDEF-OH)', 6.81),
  ('CCCCCCCCCCCCCC(=O)N[C@H](C(=O)N[C@@H](C)C(=O)N[C@@H](CCC(N)=O)C(=O)N[C@@H](CCC(=O)O)C(=O)N[C@@H](CC(C)C)C(=O)N[C@@H](CCCNC(=N)N)C(=O)NC(CCCNC(=N)N)C(=O)N[C@H](C(=O)NCC(=O)N[C@@H](CC(=O)O)C(=O)N[C@@H](CCC(=O)O)C(=O)N[C@@H](Cc1ccccc1)C(=O)O)[C@@H](C)CC)[C@@H](C)CC (stereo partly specified) (Myristoyl-IAQELR[ξR]IGDEF-OH)', 2.96),
  ('CC[C@H](C)[C@H](NC(=O)CCCCCCCCCCCCCCCCC(=O)O)C(=O)N[C@@H](C)C(=O)N[C@@H](CCC(N)=O)C(=O)N[C@@H](CCC(=O)O)C(=O)N[C@@H](CC(C)C)C(=O)N[C@@H](CCCNC(=N)N)C(=O)NC(CCCNC(=N)N)C(=O)N[C@H](C(=O)NCC(=O)N[C@@H](CC(=O)O)C(=O)N[C@@H](CCC(=O)O)C(=O)N[C@@H](Cc1ccccc1)C(=O)O)[C@@H](C)CC (stereo partly specified) ({C18 diacid}-IAQELR[ξR]IGDEF-OH)', 0.2),
  ('CCCCCCCCCCCCCCCCCC(=O)N[C@H](C(=O)N[C@@H](C)C(=O)N[C@@H](CCC(N)=O)C(=O)N[C@@H](CCC(=O)O)C(=O)N[C@@H](CC(C)C)C(=O)N[C@@H](CCCNC(=N)N)C(=O)NC(CCCNC(=N)N)C(=O)N[C@H](C(=O)NCC(=O)N[C@@H](CC(=O)O)C(=O)N[C@@H](CCC(=O)O)C(=O)N[C@@H](Cc1ccccc1)C(=O)O)[C@@H](C)CC)[C@@H](C)CC (stereo partly specified) (Stearoyl-IAQELR[ξR]IGDEF-OH)', 7.33);

----------
Target: Tyrosine-protein phosphatase non-receptor type 1 (Homo sapiens, UniProt P18031)
Sequence (P18031 whole entry): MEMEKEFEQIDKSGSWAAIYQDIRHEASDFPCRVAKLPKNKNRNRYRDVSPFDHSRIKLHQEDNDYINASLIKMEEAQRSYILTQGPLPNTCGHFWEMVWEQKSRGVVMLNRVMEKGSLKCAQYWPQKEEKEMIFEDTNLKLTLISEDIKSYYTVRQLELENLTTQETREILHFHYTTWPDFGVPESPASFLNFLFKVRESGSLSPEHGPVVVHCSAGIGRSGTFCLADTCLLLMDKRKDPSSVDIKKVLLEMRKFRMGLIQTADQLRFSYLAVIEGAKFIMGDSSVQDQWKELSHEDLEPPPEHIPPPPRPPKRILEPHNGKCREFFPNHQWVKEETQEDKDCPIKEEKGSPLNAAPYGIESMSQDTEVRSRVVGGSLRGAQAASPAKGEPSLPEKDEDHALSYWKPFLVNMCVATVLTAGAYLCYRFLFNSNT
Experiment: Inhibition of N-terminal His tagged recombinant human PTP1B expressed in Escherichia coli using pNPP as substrate assessed as substrate hydrolysis
pIC50: −log10 of the molar value. Square brackets hold non-standard residues; d marks the D form. Peptide text beside a SMILES is read from it. * marks the point of attachment. ξ: configuration not given here. C20 diacid = O=C(O)CCCCCCCCCCCCCCCCCCC(=O)*; C18 diacid = O=C(O)CCCCCCCCCCCCCCCCC(=O)*; C15 diacid = O=C(O)CCCCCCCCCCCCCC(=O)*; ξR = N=C(N)NCCCC(N)C(=O)O
OUTCOME MEASURE: pIC50

INSERT INTO results (compound, endpoint_value) VALUES
  ('CC[C@H](C)[C@H](NC(=O)CCCCCCCCCCCCCC(=O)O)C(=O)N[C@@H](C)C(=O)N[C@@H](CCC(N)=O)C(=O)N[C@@H](CCC(=O)O)C(=O)N[C@@H](CC(C)C)C(=O)N[C@@H](CCCNC(=N)N)C(=O)N[C@@H](CCCNC(=N)N)C(=O)N[C@H](C(=O)NCC(=O)N[C@@H](CC(=O)O)C(=O)N[C@@H](CCC(=O)O)C(=O)N[C@@H](Cc1ccccc1)C(=O)O)[C@@H](C)CC ({C15 diacid}-IAQELRRIGDEF-OH)', 5.81),
  ('CC[C@H](C)[C@H](NC(=O)CCCCCCCCCCCCCCCCC(=O)O)C(=O)N[C@@H](C)C(=O)N[C@@H](CCC(N)=O)C(=O)N[C@@H](CCC(=O)O)C(=O)N[C@@H](CC(C)C)C(=O)N[C@@H](CCCNC(=N)N)C(=O)NC(CCCNC(=N)N)C(=O)N[C@H](C(=O)NCC(=O)N[C@@H](CC(=O)O)C(=O)N[C@@H](CCC(=O)O)C(=O)N[C@@H](Cc1ccccc1)C(=O)O)[C@@H](C)CC (stereo partly drawn) ({C18 diacid}-IAQELR[ξR]IGDEF-OH)', 6.41),
  ('CC[C@H](C)[C@H](NC(=O)CCCCCCCCCCCCCCCCCCC(=O)O)C(=O)N[C@@H](C)C(=O)N[C@@H](CCC(N)=O)C(=O)N[C@@H](CCC(=O)O)C(=O)N[C@@H](CC(C)C)C(=O)N[C@@H](CCCNC(=N)N)C(=O)NC(CCCNC(=N)N)C(=O)N[C@H](C(=O)NCC(=O)N[C@@H](CC(=O)O)C(=O)N[C@@H](CCC(=O)O)C(=O)N[C@@H](Cc1ccccc1)C(=O)O)[C@@H](C)CC (stereo partly drawn) ({C20 diacid}-IAQELR[ξR]IGDEF-OH)', 6.35);

----------
Molecular target: UniProt:P18031
Test: Inhibition of N-terminal His tagged recombinant human PTP1B expressed in Escherichia coli using pNPP as substrate assessed as substrate hydrolysis at 40 umol/L relative to control
Details: dose 40.0 µmol/L
Square brackets hold non-standard residues; d marks the D form. Peptide text beside a SMILES is read from it. * marks the point of attachment. ξ: configuration not given here. Myristoyl = CCCCCCCCCCCCCC(=O)*; Lauroyl = CCCCCCCCCCCC(=O)*; ξR = N=C(N)NCCCC(N)C(=O)O; Hexanoyl = CCCCCC(=O)*
OUTCOME MEASURE: inhibition

INSERT INTO results (molecule, endpoint_value) VALUES
  ('CCCCCCCCCCCC(=O)N[C@H](C(=O)N[C@@H](C)C(=O)N[C@@H](CCC(N)=O)C(=O)N[C@@H](CCC(=O)O)C(=O)N[C@@H](CC(C)C)C(=O)N[C@@H](CCCNC(=N)N)C(=O)N[C@@H](CCCNC(=N)N)C(=O)N[C@H](C(=O)NCC(=O)N[C@@H](CC(=O)O)C(=O)N[C@@H](CCC(=O)O)C(=O)N[C@@H](Cc1ccccc1)C(=O)O)[C@@H](C)CC)[C@@H](C)CC (Lauroyl-IAQELRRIGDEF-OH)', '> 50%'),
  ('CCCCCC(=O)N[C@H](C(=O)N[C@@H](C)C(=O)N[C@@H](CCC(N)=O)C(=O)N[C@@H](CCC(=O)O)C(=O)N[C@@H](CC(C)C)C(=O)N[C@@H](CCCNC(=N)N)C(=O)N[C@@H](CCCNC(=N)N)C(=O)N[C@H](C(=O)NCC(=O)N[C@@H](CC(=O)O)C(=O)N[C@@H](CCC(=O)O)C(=O)N[C@@H](Cc1ccccc1)C(=O)O)[C@@H](C)CC)[C@@H](C)CC (Hexanoyl-IAQELRRIGDEF-OH)', '< 50%'),
  ('CCCCCCCCCCCCCC(=O)N[C@H](C(=O)N[C@@H](C)C(=O)N[C@@H](CCC(N)=O)C(=O)N[C@@H](CCC(=O)O)C(=O)N[C@@H](CC(C)C)C(=O)N[C@@H](CCCNC(=N)N)C(=O)NC(CCCNC(=N)N)C(=O)N[C@H](C(=O)NCC(=O)N[C@@H](CC(=O)O)C(=O)N[C@@H](CCC(=O)O)C(=O)N[C@@H](Cc1ccccc1)C(=O)O)[C@@H](C)CC)[C@@H](C)CC (stereo partly drawn) (Myristoyl-IAQELR[ξR]IGDEF-OH)', '> 50%');
